Each record here notes measured IC50.
Target: human TYK2 catalytic kinase (JH1) domain (Homo sapiens (Human), UniProt P29597)
Sequence (P29597 897-1176): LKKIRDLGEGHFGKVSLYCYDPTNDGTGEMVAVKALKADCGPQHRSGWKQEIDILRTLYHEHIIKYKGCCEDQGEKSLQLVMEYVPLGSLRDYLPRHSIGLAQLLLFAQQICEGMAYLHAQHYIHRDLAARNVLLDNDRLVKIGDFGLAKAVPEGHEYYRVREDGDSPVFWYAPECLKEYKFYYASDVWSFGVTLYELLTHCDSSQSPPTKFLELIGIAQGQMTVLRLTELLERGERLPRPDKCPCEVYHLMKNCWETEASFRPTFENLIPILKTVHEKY
Assay: ADP-Glo Kinase Assay, recombinant TYK2 catalytic kinase (JH1) domain
Type: biochemical
Settings: recombinant JH1 domain 2 nM, 10 μM ATP, JAK3-974 peptide, mean, read-out: TYK2 biochem IC50 (nM) Mean
Just the number please, in nM, no unit attached.

// solved cases for IC50 follow
Cn1ncc(-c2cc3c(N4CC5CCC(C4)N5C(=O)[C@@H]4C[C@H]4F)ncnn3c2)c1F [Example 97]	76.8
Cc1ccc(-c2cc3c(N4CC5CCC(C4)N5C(=O)[C@@H]4C[C@H]4F)ncnc3[nH]2)cn1 [Example 224]	19.2
Cn1cc(-c2cc3c(N4CC5CCC(C4)N5S(=O)(=O)[C@@H]4CC4(F)F)ccnn3c2)cn1 [Example 198]	15.1
Cn1cc(-c2cc3c(N4CC5CCC(C4)N5C(=O)[C@H]4C[C@@H]4F)ncnn3c2)cn1 [Example 6]	133
CC(C)n1cc(-c2cc3c(N4CC5CCC(C4)N5C(=O)C4CC4)ncnn3c2)cn1 [Example 148]	136

Read off the recorded IC50 for CNc1cc(-c2cc3c(N4CC5CCC(C4)N5C(=O)[C@@H]4C[C@H]4F)ncnn3c2)ccn1 [Example 94]
18.6

Read off the recorded IC50 for O=C(C1CC1)N1C2CCC1CN(c1ccnc3[nH]c(-c4cnn(C(F)F)c4)cc13)C2 [Example 237]
1.1

###

Molecular target: human TYK2 catalytic kinase (JH1) domain (Homo sapiens (Human), UniProt P29597)
Test: ADP-Glo Kinase Assay, recombinant TYK2 catalytic kinase (JH1) domain
Assay type: biochemical
Settings: recombinant JH1 domain 2 nM, 10 μM ATP, JAK3-974 peptide, mean, read-out: TYK2 biochem IC50 (nM) Mean
Where a name gives a salt, the structure may show the parent alone.
Outcome Measure: IC50 (nM)
Just the number please, in nM, no unit attached.

// solved cases for IC50 follow
O=C([C@@H]1C[C@H]1F)N1C2CCC1CN(c1ncnc3[nH]c(-c4cnn(C(F)F)c4)cc13)C2	2.8
O=C(C1CC1)N1C2CCC1CN(c1ncnn3cc(-c4cnn(C5CCOC5)c4)cc13)C2 (centres unmarked)	145
O=C(C1CC(O)(C(F)(F)F)C1)N1C2CCC1CN(c1ncnn3cc(-c4cnn(C(F)F)c4)cc13)C2 (centres unmarked) [Example 36, trifluoroacetate]	968

Read off the recorded IC50 for `O=C(N1C2CCC1CN(c1ncnn3cc(-c4cnn(C(F)F)c4)cc13)C2)C(F)(F)F`
334

Read off the recorded IC50 for Cn1cc(-c2cc3c(N4CC5CCC(C4)N5C(=O)[C@H]4C[C@H]4C#N)ncnn3c2)cn1 (racemic) [Example 65]
1210

Read off the recorded IC50 for `Cn1cc(-c2cc3c(N4CC5CCC(C4)N5C(=O)C4CC4)ccnn3c2)cn1`
13

Read off the recorded IC50 for `Cc1ccc(-c2cc3c(N4CC5CCC(C4)N5C(=O)[C@@H]4C[C@H]4F)ccnn3c2)cn1`
3

Read off the recorded IC50 for `Cn1cc(-c2cc3c(N4CC5CCC(C4)N5S(=O)(=O)[C@H]4CC4(F)F)ccnn3c2)cn1`
16.7

###

Each record here notes measured IC50.
Target: human JAK1 catalytic kinase (JH1) domain (Homo sapiens (Human))
Sequence (P23458 875-1153): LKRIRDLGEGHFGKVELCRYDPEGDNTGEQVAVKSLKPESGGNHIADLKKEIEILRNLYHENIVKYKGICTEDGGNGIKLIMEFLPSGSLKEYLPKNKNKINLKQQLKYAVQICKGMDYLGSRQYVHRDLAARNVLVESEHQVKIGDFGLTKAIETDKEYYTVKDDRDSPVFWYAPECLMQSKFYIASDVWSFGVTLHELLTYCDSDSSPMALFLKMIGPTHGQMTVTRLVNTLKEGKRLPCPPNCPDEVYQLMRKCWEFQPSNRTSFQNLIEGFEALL
Experiment: ADP-Glo Kinase Assay, recombinant JAK1 catalytic kinase (JH1) domain
Assay type: biochemical
Conditions: recombinant JH1 domain 4 nM, 35 μM ATP, JAK3-342 peptide, mean, read-out: JAK1 biochem IC50 (nM) Mean
Just the number please, in nM, no unit attached.

O=C([C@H]1C[C@H]1F)N1C2CCC1CN(c1ncnn3cc(-c4cnn(C(F)F)c4)cc13)C2 (racemic) [Example 46]	1230
COc1cc(-c2cn3nccc(N4CC5CCC(C4)N5C(=O)[C@@H]4C[C@H]4F)c3n2)ccn1 [Example 248]	23

Read off the recorded IC50 for CN(C)c1cc(-c2cc3c(N4CC5CCC(C4)N5C(=O)[C@@H]4C[C@H]4F)ccnn3c2)ccn1 [Example 128]
29

Read off the recorded IC50 for O=C([C@@H]1C[C@H]1F)N1C2CCC1CN(c1ccnc3[nH]c(C4CC4)nc13)C2 [Example 208]
716

Read off the recorded IC50 for CNc1cc(-c2nc3c(N4CC5CCC(C4)N5C(=O)[C@@H]4C[C@H]4F)ccnc3[nH]2)ccn1 [Example 217]
3

Read off the recorded IC50 for O=C(C1CC1)N1C2CCC1CN(c1ccnn3cc(-c4cnn(C(F)F)c4)cc13)C2 [Example 16]
264

Read off the recorded IC50 for O=C([C@H]1C[C@@H]1F)N1C2CCC1CN(c1ncnn3cc(-c4cnn(C(F)F)c4)cc13)C2 [Example 4]
452

Read off the recorded IC50 for O=C([C@@H]1C[C@H]1F)N1C2CCC1CN(c1ccnc3[nH]c(C4CCC4)nc13)C2 [Example 209]
1710

Read off the recorded IC50 for O=C(C1CC1)N1C2CCC1CN(c1ncnn3cc(-c4cnn(C(F)(F)F)c4)cc13)C2 [Example 154]
2950

Read off the recorded IC50 for Cn1cc(-c2cc3c(N4CC5CCC(C4)N5C(=O)[C@H]4C[C@@H]4F)ncnn3c2)cn1 (single isomer, unassigned) [Example 81]
1420

Read off the recorded IC50 for O=C(C1CC1)N1C2CCC1CN(c1ncnn3cc(-c4cnn(CF)c4)cc13)C2 [Example 155]
1810

Read off the recorded IC50 for Cn1cc(-c2cc3c(N4CC5CCC(C4)N5C(=O)[C@H]4C[C@H]4F)ncnn3c2)cn1 (racemic) [Example 60]
1340

Read off the recorded IC50 for Cc1ccc(-c2cc3c(N4CC5CCC(C4)N5C(=O)[C@@H]4C[C@H]4F)ncnn3c2)cn1 [Example 92]
744

Read off the recorded IC50 for CCn1ncc(-c2cc3c(N4CC5CCC(C4)N5C(=O)C4CC4)ncnn3c2)c1F [Example 161]
492

Read off the recorded IC50 for COc1cc(-c2cc3c(N4CC5CCC(C4)N5S(=O)(=O)C4CC4)ccnc3[nH]2)ccn1 [Example 194]
116
